- experiment.notes: Effect of BITC co-administration on topotecan pharmacokinetics
- test.settings: Sprague-Dawley, rat, plasma, po, 2 mg/kg, AUC0–720 min, topotecan alone (2 mg/kg dose)
observation.type: AUC(0-t) (ng·h/mL)

{"columns": ["compound", "observation.type", "val"],
 "data": [
  ["CC[C@@]1(O)C(=O)OCc2c1cc1n(c2=O)Cc2cc3c(CN(C)C)c(O)ccc3nc2-1 [topotecan]", "AUC(0-t)", 182]
]}
